Tested on: CCRIS mutagenicity, Ames/micronucleus/aberration tests
protocol details: CCRIS mutagenicity studies
run parameters: Test System: AMES SALMONELLA TYPHIMURIUM; Strain/Indicator: TA100; Metabolic Activation: RAT LIVER S-9, AROCLOR 1254; Method: PREINCUBATION
Activity calls are given as the source filed them. The rule behind the calls is not given here.
Output constraint: value belongs to t (active), f (inactive)

Task: I would be grateful if you could indicate the recorded call for Nc1ccccc1-c1ccccc1 .
Output: f

Task: What do you get for C=C(C=O)CC ?
Output: t

Task: C=C(C)C=O , same question.
Output: t

Task: Try the compound CN(CCCC(=O)c1cccnc1)N=O
Output: f

Task: Try O=c1c(O)c(-c2ccccc2)oc2cc(O)cc(O)c12 next.
Output: f

Task: Another: CCC=O
Output: f

Task: And for CCn1cc(C(=O)O)c(=O)c2cc(F)c(N3CCNCC3)cc21 ?
Output: f

Task: Can you handle Nc1cccc(-c2ccccc2)c1 next?
Output: f

Task: Also need CCn1cc(C(=O)O)c(=O)c2cnc(N3CCNCC3)nc21 , thanks.
Output: f

Task: Moving on to the next compound: Nc1ccc(-c2ccccc2)cc1
Output: t

====

Test system: CCRIS mutagenicity, Ames/micronucleus/aberration tests
protocol details: CCRIS mutagenicity studies
run parameters: Test System: AMES SALMONELLA TYPHIMURIUM; Strain/Indicator: TA1538; Metabolic Activation: NONE; Method: STANDARD PLATE
The source made the active and inactive calls. How the calls were made is not given here.
Entry note: the call must match one of active, inactive

Use the examples below as a reference point.
1) C=C(C)C(=O)OC(C)(C)C	inactive
2) Cc1c2ccncc2c(C)c2c1[nH]c1ccc(N)cc12	active
3) CC=O	inactive
4) COc1ccc2nc(N)sc2c1	active
5) [O]=[Zr]	inactive

Task: Hey, what did the test say about OC[C@H]1O[C@@H](n2cnc3c(NC[C@H](O)COc4cccc5ccccc45)ncnc32)[C@H](O)[C@@H]1O ?
Output: inactive

Task: CN(CCO)C(=O)Nc1ccc(Cl)c(Cl)c1 , same question.
Output: inactive

Task: CCCCCCCCCCSCn1cc[n+](C)c1 ?
Output: inactive

Task: Param item: CC(C)N(C(=O)SCC(Cl)=C(Cl)Cl)C(C)C
Output: inactive

Task: Follow-up entry: Cc1cc(N)c(C)c([N+](=O)[O-])c1N
Output: inactive

Task: Same question, C[C@@H]1CC[C@@]2(OC1)O[C@H]1C[C@H]3[C@@H]4CC=C5C[C@@H](O)CC[C@]5(C)[C@H]4CC[C@]3(C)[C@H]1[C@@H]2C this time
Output: inactive

Task: What about this compound? Cl/C=C/C[N+]12CN3CN(CN(C3)C1)C2
Output: inactive

====

Test system: CCRIS mutagenicity, Ames/micronucleus/aberration tests
protocol details: CCRIS mutagenicity studies
run parameters: Test System: AMES SALMONELLA TYPHIMURIUM; Strain/Indicator: TA98; Metabolic Activation: NONE; Method: STANDARD PLATE
Calls of active or inactive are those of the source. How the calls were made is not given here.
Permitted responses: active, inactive

1. C=C(C)C(=O)OCCCCCCOC(=O)C(=C)C	inactive
2. c1ccc2c(c1)C1CCCCC1[C@@H]1O[C@@H]21 (some centres undefined)	inactive
3. Cn1c(N=[N+]=[N-])nc2ccc3ccccc3c21	active
4. Cc1ccc(-c2nc(-c3ccc(C)cc3C)[nH]c2-c2ccc(C)cc2)cc1	active
5. COc1c2ccoc2cc2oc(=O)ccc12	inactive
6. C=C[Si](C)(C)CCl	inactive

Task: Call for entry Oc1c(Cl)ccc(Cl)c1Cl :
Output: inactive

Task: Same read-out for CC(C)CCCCCCOC(=O)c1ccccc1C(=O)OCCCCCCC(C)C ?
Output: inactive

Task: Field entry: O=C(O)CCCC[C@@H]1SC[C@@H]2NC(=O)N[C@@H]21
Output: inactive

Task: Query CC=O next
Output: inactive

Task: Field entry: O=C([O-])c1ccccn1.O=C([O-])c1ccccn1.O=C([O-])c1ccccn1.[Cr+3]
Output: inactive

Task: Repeat for the following compound: C[Si](C)(C)Cl
Output: inactive

Task: Please give the result for Nc1ccc(Oc2ccc(N)cc2)cc1 too.
Output: inactive

Task: Entry CCC1=C(C(=O)OC)C(=O)OC1C (centres undefined) please
Output: active
